# Test system: DeltatarO mutant
# assay: S. aureus survival, RN4220 and DeltatarO strains – OD600, teichoic acid synthesis inhibitors, primary screen (AID 463173)
# assayContext: S. aureus RN4220 wild type/DeltatarO growth, OD600, 18 h, active compounds read low, screened at 18.75 µg/mL (by protocol)
Among all 52,000 compounds or so, about 4,300 (8.3%) were called active. For the sample, actives were picked, then their nearest neighbours and some compounds at random.
# survival annotations

sampleSmiles: CCn1c(=O)cc(SCC(=O)Nc2ccc(C)c(F)c2)c2ccccc21
systemUnderTest: DeltatarO mutant
unitInfo: %
survival: 89
//
sampleSmiles: CSc1ccc(-c2nc3cc(C)ccn3c2Nc2ccc(C)cc2)cc1
systemUnderTest: DeltatarO mutant
unitInfo: %
survival: 95
//
sampleSmiles: CCn1c(=O)cc(OCC(=O)Nc2cc(OC)c(OC)c(OC)c2)c2ccccc21
systemUnderTest: DeltatarO mutant
unitInfo: %
survival: 47
//
sampleSmiles: Cc1cccc(OCC(=O)Nc2ccc(NC(=O)c3ccco3)cc2)c1
systemUnderTest: DeltatarO mutant
unitInfo: %
survival: 83
//
sampleSmiles: CC(C)c1ccc(NC(=O)Cn2c(=O)n(CCc3ccccc3)c(=O)c3ccccc32)cc1
systemUnderTest: DeltatarO mutant
unitInfo: %
survival: 82
//
sampleSmiles: O=C(CSc1cn(CC(=O)N2CCCCC2)c2ccccc12)NCc1ccccc1Cl
systemUnderTest: DeltatarO mutant
unitInfo: %
survival: 74
//
sampleSmiles: COc1ccc(Nc2cc(C)c3cc(NC(=O)COc4cccc(C)c4)ccc3n2)cc1
systemUnderTest: DeltatarO mutant
unitInfo: %
survival: 102
//
sampleSmiles: CCn1c2ccccc2c2cc(NC(=O)COC)ccc21
systemUnderTest: DeltatarO mutant
unitInfo: %
survival: 43
//
sampleSmiles: CCc1nc(C)cn1S(=O)(=O)c1ccc(Cl)c(Cl)c1OC
systemUnderTest: DeltatarO mutant
unitInfo: %
survival: 71
//
sampleSmiles: Cc1cc(OCC(=O)Nc2ccc3c(c2)OCCO3)cc(C)c1Cl
systemUnderTest: DeltatarO mutant
unitInfo: %
survival: 77
//
sampleSmiles: CCOc1cc(Cl)c(S(=O)(=O)n2ccnc2)cc1Cl
systemUnderTest: DeltatarO mutant
unitInfo: %
survival: 73

---

# System: DeltatarO mutant
# assay: S. aureus survival, RN4220 and DeltatarO strains – OD600, teichoic acid synthesis inhibitors, primary screen (AID 463173)
# assayContext: S. aureus RN4220 wild type/DeltatarO growth, OD600, 18 h, active compounds read low, screened at 18.75 µg/mL (by protocol)
Among all 52,000 compounds or so, about 4,300 (8.3%) were called active. This excerpt belongs to a sample that is enriched for actives.

molecule: CC(C)CCn1c(/C=C/c2ccccc2)nc2ccccc21
systemUnderTest: DeltatarO mutant
unitInfo: %
survival: -1
--
molecule: CCC(C)Cn1c(/C=C/c2ccccc2)nc2ccccc21 (stereo not drawn)
systemUnderTest: DeltatarO mutant
unitInfo: %
survival: -1
--
molecule: CC1=C(C(=O)NCc2ccccc2C)C2(CCCCCC2)OC1=O
systemUnderTest: DeltatarO mutant
unitInfo: %
survival: 78
--
molecule: CCCSc1nnc(NC(=O)Cc2coc3cc(C)ccc23)s1
systemUnderTest: DeltatarO mutant
unitInfo: %
survival: 85
--
molecule: Cc1ccc(N(CC(=O)Nc2ccc(C)c(F)c2)S(=O)(=O)c2c(C)n[nH]c2C)cc1
systemUnderTest: DeltatarO mutant
unitInfo: %
survival: 66
--
molecule: Cn1c(CNC(=O)CSc2n[nH]c(-c3ccccc3)n2)nc2ccccc21
systemUnderTest: DeltatarO mutant
unitInfo: %
survival: 89
--
molecule: O=C(Nc1nnc(S(=O)(=O)N2CCCCC2)s1)c1ccc(Cl)cc1
systemUnderTest: DeltatarO mutant
unitInfo: %
survival: 37
--
molecule: Cc1cc(C)n(-c2nc(C)c(C)c(=O)n2CC(=O)Nc2ccc(OC(F)(F)F)cc2)n1
systemUnderTest: DeltatarO mutant
unitInfo: %
survival: 90
--
molecule: CCN(C(=O)CSc1nc2ncccc2[nH]1)c1ccc(C(C)C)cc1
systemUnderTest: DeltatarO mutant
unitInfo: %
survival: 43
--
molecule: Cc1n[nH]c(C)c1S(=O)(=O)N(CC(=O)NC(C)c1ccccc1)c1ccc(C(C)C)cc1 (stereo not drawn)
systemUnderTest: DeltatarO mutant
unitInfo: %
survival: 54
--
molecule: CCc1cc(=O)oc2c(C)c3c(cc12)CN(CCc1ccccc1)CO3
systemUnderTest: DeltatarO mutant
unitInfo: %
survival: 71
--
molecule: O=C1C2CCCC1C(c1ccc3c(c1)OCO3)NC2c1ccc2c(c1)OCO2 (stereo not drawn)
systemUnderTest: DeltatarO mutant
unitInfo: %
survival: 58
--
molecule: O=C(Nc1nnc(S(=O)(=O)N2CCCCC2)s1)c1ccc(F)cc1
systemUnderTest: DeltatarO mutant
unitInfo: %
survival: 79
--
molecule: Cc1n[nH]c(C)c1S(=O)(=O)N(CC(=O)Nc1ccc(C(F)(F)F)cc1)c1ccc(C(C)C)cc1
systemUnderTest: DeltatarO mutant
unitInfo: %
survival: 46
--
molecule: CCCCCCn1c(/C=C/c2ccccc2)nc2ccccc21
systemUnderTest: DeltatarO mutant
unitInfo: %
survival: 1
--
molecule: O=C(Nc1nnc(S(=O)(=O)N2CCCC2)s1)c1ccc(F)cc1
systemUnderTest: DeltatarO mutant
unitInfo: %
survival: 111
--
molecule: Cc1cc(N2CCC(C(=O)Nc3ccc(F)cc3F)CC2)n2nc(C)c(-c3ccc(Cl)cc3)c2n1
systemUnderTest: DeltatarO mutant
unitInfo: %
survival: 86
--
molecule: COc1cccc(NC(=O)c2ccc(CNS(=O)(=O)c3ccc4c(c3)C(C)(C)C(=O)N4C)cc2)c1
systemUnderTest: DeltatarO mutant
unitInfo: %
survival: 51
--
molecule: CCc1nnc(NC(=O)c2cc(=O)c3cc(C)c(C)cc3o2)s1
systemUnderTest: DeltatarO mutant
unitInfo: %
survival: 36
--
molecule: CCc1ccccc1NC(=O)Cn1c(=O)nc(-c2ccccc2)c2ccccc21
systemUnderTest: DeltatarO mutant
unitInfo: %
survival: 90
--
molecule: Cc1c(C#N)c2ccccc2n1CC(=O)NC1CCCCCC1
systemUnderTest: DeltatarO mutant
unitInfo: %
survival: 72
--
molecule: CCN1c2ccccc2-c2nc(SCC(=O)Nc3cccc(C)c3C)ncc2S1(=O)=O
systemUnderTest: DeltatarO mutant
unitInfo: %
survival: 101
--
molecule: CCCc1nnc(NC(=O)c2cc(=O)c3ccccc3o2)s1
systemUnderTest: DeltatarO mutant
unitInfo: %
survival: 63
--
molecule: Cc1c(C)c2cc3c(c(C)c2oc1=O)OCN(CCc1ccccc1)C3
systemUnderTest: DeltatarO mutant
unitInfo: %
survival: 77
--
molecule: Cc1ccc(N(CC(=O)NC(C)c2ccccc2)S(=O)(=O)c2c(C)noc2C)cc1 (stereo not drawn)
systemUnderTest: DeltatarO mutant
unitInfo: %
survival: 74
--
molecule: O=C1C=CC(=O)C(c2ccc(Cl)cc2)=C1
systemUnderTest: DeltatarO mutant
unitInfo: %
survival: 66
--
molecule: CCc1cc(=O)oc2c(C)c3c(cc12)CN(CCc1ccccc1OC)CO3
systemUnderTest: DeltatarO mutant
unitInfo: %
survival: 51
--
molecule: COC(=O)c1ccc(OCC2c3cc(OC)c(OC)cc3CCN2C(=O)c2ccc(F)cc2)cc1 (stereo not drawn)
systemUnderTest: DeltatarO mutant
unitInfo: %
survival: 76
--
molecule: CCCc1cc(=O)oc2c(C)c3c(cc12)CN(CCc1ccc(Cl)cc1)CO3
systemUnderTest: DeltatarO mutant
unitInfo: %
survival: 39
--
molecule: Cc1ccc2nc(-c3ccncc3)c(Nc3ccccc3C)n2c1
systemUnderTest: DeltatarO mutant
unitInfo: %
survival: 103
--
molecule: Cc1ccc(CNC(=O)CN(c2ccc(C(C)C)cc2)S(=O)(=O)c2c(C)n[nH]c2C)cc1
systemUnderTest: DeltatarO mutant
unitInfo: %
survival: 43
--
molecule: Cc1ccc(Cl)cc1NC(=O)CSCc1cnn(-c2ccccc2)c1-n1cccc1
systemUnderTest: DeltatarO mutant
unitInfo: %
survival: 70
--
molecule: Cc1n[nH]c(C)c1S(=O)(=O)N(CC(=O)NCc1ccccc1Cl)c1ccc(C(C)C)cc1
systemUnderTest: DeltatarO mutant
unitInfo: %
survival: 52
--
molecule: COc1ccc2c(Sc3ccc(C)cc3)c(C(=O)NC(C)C)[nH]c2c1
systemUnderTest: DeltatarO mutant
unitInfo: %
survival: 86
--
molecule: O=c1c2cnn(-c3ccc(F)cc3)c2ncn1Cc1ccc(F)cc1
systemUnderTest: DeltatarO mutant
unitInfo: %
survival: 106
--
molecule: COC(=O)Cc1c(C)c2cc3c(c(C)c2oc1=O)OCN(CCc1ccc(F)cc1)C3
systemUnderTest: DeltatarO mutant
unitInfo: %
survival: 44
--
molecule: CCCCCCn1c(CNC(=O)c2ccccc2)nc2ccccc21
systemUnderTest: DeltatarO mutant
unitInfo: %
survival: 66
--
molecule: Cc1noc(C)c1S(=O)(=O)N(CC(=O)Nc1ccc(C(F)(F)F)cc1)c1ccc(C(C)C)cc1
systemUnderTest: DeltatarO mutant
unitInfo: %
survival: 55
--
molecule: Cc1cc2oc(C(=O)Nc3ccc(S(N)(=O)=O)cc3)cc(=O)c2cc1C
systemUnderTest: DeltatarO mutant
unitInfo: %
survival: 70
--
molecule: CCc1nc2ccccc2n1CC(C)C(=O)O (stereo not drawn)
systemUnderTest: DeltatarO mutant
unitInfo: %
survival: 96
--
molecule: CCn1c(O)c(/C=C/c2nc3ccccc3n2CC)sc1=S
systemUnderTest: DeltatarO mutant
unitInfo: %
survival: 78
--
molecule: CCCC(=O)Nc1nnc(CCC)s1
systemUnderTest: DeltatarO mutant
unitInfo: %
survival: 80
--
molecule: CCN(C(=O)c1c(C)oc2ncnc(N3CCCCC3)c12)c1cc(C)ccc1C
systemUnderTest: DeltatarO mutant
unitInfo: %
survival: 95
